# abundance fitness values compiled below
B1: Zinc finger MYM-type protein 2, residues 463 to 506; numbered along this chain, Q9UBW7 (parent)
chain: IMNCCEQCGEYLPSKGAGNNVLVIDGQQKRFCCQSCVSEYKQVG

Variants of: B1
method: abundance fitness (aPCA) (normalised: wild type 0, dead -1); higher = more abundant; growth selection in yeast, the domain comes from the species named
condition_set: Homo sapiens
Field format: numeric only.

Sample answers from the record:
• Q34H = 0.004
• V37Q = -0.024
• E39L = -0.265
• P13S = -0.207
• N20H = 0.087

According to the records, this variant S38A displays abundance fitness of 0.019

According to the records, this variant M2A displays abundance fitness of -0.162

According to the records, this variant V37P displays abundance fitness of -0.135

According to the records, this variant Y40Q displays abundance fitness of 0.067

According to the records, this variant G26S displays abundance fitness of -0.065

According to the records, this variant N19I displays abundance fitness of -0.141

According to the records, this variant Y40G displays abundance fitness of 0.057

These measurements were taken from the Human Domainome abundance scans (Beltran et al. 2025).
